- tgt: Retinoic acid receptor alpha (Homo sapiens)
- Sequence (P10276 whole entry): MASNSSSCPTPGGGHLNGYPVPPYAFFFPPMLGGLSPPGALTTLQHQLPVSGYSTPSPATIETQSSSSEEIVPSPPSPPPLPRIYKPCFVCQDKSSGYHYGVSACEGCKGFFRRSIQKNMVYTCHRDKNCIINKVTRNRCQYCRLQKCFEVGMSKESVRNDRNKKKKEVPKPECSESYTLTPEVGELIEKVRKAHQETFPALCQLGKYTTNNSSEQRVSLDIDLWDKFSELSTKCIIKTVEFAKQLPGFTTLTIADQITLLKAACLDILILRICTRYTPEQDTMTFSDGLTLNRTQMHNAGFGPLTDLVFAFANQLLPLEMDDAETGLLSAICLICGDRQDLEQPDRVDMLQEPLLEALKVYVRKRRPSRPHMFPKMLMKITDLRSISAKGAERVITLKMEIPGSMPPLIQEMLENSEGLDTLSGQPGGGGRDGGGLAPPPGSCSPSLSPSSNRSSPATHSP
Here is a set of compounds with reported IC50 for Retinoic acid receptor alpha (Homo sapiens), compiled from the literature.
readout.name: IC50 (nM)

P: CC1=C(/C=C/C(C)=C/C=C/C(C)=C/C(=O)O)C(C)(C)CCC1n1cnnc1 (racemic)
Q: CCc1cc2c(cc1/C(C)=C/c1ccc(C(=O)O)cc1)C(C)(C)CCC2(C)C
R: O=C(O)c1ccc(NC(=O)c2cc(OCc3ccccc3F)cc(OCc3ccccc3F)c2)nc1
S: CC1=C(/C=C/C(C)=C/C=C/C(C)=C/C(=O)O)C(C)(C)CCC1n1ccnc1 (racemic)
-- ask Please list the entries, largest IC50 first. Reply format: the labels, ordered as requested.
-- reply P, Q, S, R
(P: 410 nM, Q: 100 nM, S: 20 nM, R: 11.1 nM)
